- assay_info: Transfer of volatiles via headspace from MCT flavor composition to PG plated onto MCC, cyclohexane extraction, GC/MS
- Format: physicochemical
- particulars: powder 20% PG on 80% MCC, 6 days room temperature
Consider the following compounds and their measured Avg conc in the PG readings.
Please respond with the number in ppm and leave the unit unwritten.

{"compound": "CSCCC=O", "units_symbol": "ppm", "test_value": 113.5}

QUERY: Check the records and state Avg conc in the PG for CCc1nccnc1C
RESULT: 799.0

QUERY: Answer with the recorded Avg conc in the PG for the compound listed here: CCC(C)C=O (stereo not drawn)
RESULT: 1615.4

QUERY: Tell me measured Avg conc in the PG for CC(=O)C(C)O (stereo not drawn) please.
RESULT: 156.9

QUERY: Provide one value: measured Avg conc in the PG of CCc1ncc(C)nc1C
RESULT: 25.4

QUERY: Return Avg conc in the PG (reported value) for this compound: CC(C)CC=O
RESULT: 1091.5

* * *

- assay_info: Transfer of volatiles via headspace from MCT flavor composition to PG plated onto MCC, cyclohexane extraction, GC/MS
- Assay type: physicochemical
- particulars: powder 20% PG on 80% MCC, 6 days room temperature in closed container with MCT flavor composition; average of 2 extractions
Catalogue of Avg conc in powder values
Value expressed in ppm; do not type the unit.

Consider the reported Avg conc in powder for these compounds:
{"compound": "CSCCC=O", "Avg conc in powder, ppm": 28}
{"compound": "CCc1nccnc1C", "Avg conc in powder, ppm": 200}
{"compound": "CCC(C)C=O (stereo not drawn)", "Avg conc in powder, ppm": 404}

QUERY: Tell me Avg conc in powder reported for CC(C)CC=O
RESULT: 273

QUERY: Entry CC(=O)C(C)O (stereo not drawn) needs its Avg conc in powder filled in; supply it.
RESULT: 39

QUERY: Given the compound CCc1ncc(C)nc1C , write its reported Avg conc in powder.
RESULT: 6

* * *

- assay_info: Transfer of volatiles via headspace from MCT flavor composition to PG plated onto MCC, cyclohexane extraction, GC/MS
- Assay type: physicochemical
- particulars: affinity for propylene glycol versus MCT oil or air, 6 days room temperature
The threshold is inclusive: (conc in PG/conc in initial oil)*100 of exactly 7 counts as y; values below receive n.

Observe how each entry below is paired with its result.
{"molecule": "CCc1ncc(C)nc1C", "class_assignment": "y"}
{"molecule": "CC(=O)C(C)O (stereo not drawn)", "class_assignment": "n"}
{"molecule": "CSCCC=O", "class_assignment": "n"}
{"molecule": "CCC(C)C=O (stereo not drawn)", "class_assignment": "n"}
{"molecule": "CCc1nccnc1C", "class_assignment": "y"}

QUERY: Form field: (conc in PG/conc in initial oil)*100 at least 7? Entry: CC(C)CC=O
RESULT: y
